# credit: PubChem BioAssay

- Study System: Epidermal growth factor receptor (Homo sapiens) (UniProt P00533)
- Sequence (P00533 whole entry, looked up): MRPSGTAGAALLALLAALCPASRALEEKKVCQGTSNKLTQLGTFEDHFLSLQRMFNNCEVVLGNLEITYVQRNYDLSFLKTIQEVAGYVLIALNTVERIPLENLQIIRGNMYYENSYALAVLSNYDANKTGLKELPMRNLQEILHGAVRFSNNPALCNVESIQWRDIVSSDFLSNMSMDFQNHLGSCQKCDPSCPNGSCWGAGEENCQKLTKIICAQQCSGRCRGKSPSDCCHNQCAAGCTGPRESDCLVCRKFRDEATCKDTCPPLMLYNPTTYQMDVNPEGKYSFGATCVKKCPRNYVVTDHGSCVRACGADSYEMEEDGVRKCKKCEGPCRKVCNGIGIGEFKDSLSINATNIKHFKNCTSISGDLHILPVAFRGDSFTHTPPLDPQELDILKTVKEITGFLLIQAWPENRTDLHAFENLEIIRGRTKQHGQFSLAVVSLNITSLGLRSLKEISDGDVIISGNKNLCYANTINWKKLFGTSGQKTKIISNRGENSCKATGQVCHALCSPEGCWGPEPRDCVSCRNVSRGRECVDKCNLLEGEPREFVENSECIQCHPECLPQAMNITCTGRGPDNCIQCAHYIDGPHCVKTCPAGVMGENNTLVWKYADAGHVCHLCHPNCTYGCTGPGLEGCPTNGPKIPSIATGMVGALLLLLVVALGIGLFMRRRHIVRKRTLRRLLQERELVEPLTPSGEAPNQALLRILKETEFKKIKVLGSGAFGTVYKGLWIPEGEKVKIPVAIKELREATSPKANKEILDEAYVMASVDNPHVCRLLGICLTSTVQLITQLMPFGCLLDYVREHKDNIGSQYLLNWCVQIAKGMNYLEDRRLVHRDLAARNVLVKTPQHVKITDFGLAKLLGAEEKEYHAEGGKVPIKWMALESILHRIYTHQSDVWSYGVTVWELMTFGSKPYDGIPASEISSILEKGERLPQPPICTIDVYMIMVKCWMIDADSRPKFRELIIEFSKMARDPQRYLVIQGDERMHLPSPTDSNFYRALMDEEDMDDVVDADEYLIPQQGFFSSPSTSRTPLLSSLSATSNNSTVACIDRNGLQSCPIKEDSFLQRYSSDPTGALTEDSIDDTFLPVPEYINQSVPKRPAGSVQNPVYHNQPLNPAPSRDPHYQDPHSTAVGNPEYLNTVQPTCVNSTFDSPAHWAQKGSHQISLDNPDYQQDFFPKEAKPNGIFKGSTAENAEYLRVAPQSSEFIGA
- Test Description: EGFR binders on small-molecule microarrays, primary screen, biochemical, small-molecule microarray, 635 nm fluorescence (AID 1104);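 further: score merges 667 nm emission intensity with spot signal to noise over triplicate slides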
- Condition Set: EGFR binding, higher = more signal
Measured Attribute: composite z-score
// no unit string in output, number only

Request: Query: composite z-score; subject: CC(C)(C)OC(=O)CC[C@]1(C(=O)NCCN2CCOCC2)N=C(c2ccc(OCCCO)cc2)O[C@H]1c1ccccc1
Response: -0.174

Request: Try the molecule NCCCCCNC(=O)[C@@H]1C[C@@H]2C(=O)N[C@@H](CCCCN)C(=O)N2[C@@H]1c1cccc(OCCO)c1
Response: -0.0511

Request: Try the molecule O=C(O)[C@H](Cc1ccccc1)n1cc(-c2ccccn2)nn1
Response: 0.211

Request: Try the molecule C=C(CCCC)C(=O)CC[C@@H](OC(=O)c1cccnc1)c1ccccc1OCCO
Response: -0.183

Request: Try the molecule COC(=O)[C@@]1(Cc2ccc(OC)cc2)[C@H]2c3cc(C(=O)N4CCCC4)n(CCc4cc5ccccc5[nH]4)c3C[C@H]2CN1C(=O)c1ccccc1
Response: 0.124

Request: Try the molecule COc1ccc(C#Cc2ccc3c(c2)[C@]2(C(=O)N3)[C@H](C(=O)N3CCc4cc(OC)c(OC)cc4C3)[C@H]3C(=O)O[C@H](c4ccccc4)[C@H](c4ccccc4)N3[C@@H]2c2ccc(O)cc2)cc1
Response: 0.537

Request: Try the molecule C=CC[C@@]12N=C(c3ccc(OCCCO)cc3)O[C@@H]1c1ccccc1N(CCS(=O)(=O)c1ccccc1)C2=O
Response: 0.272

Request: Try the molecule COc1cc(CO)cc(I)c1O[C@H]1C=C(C(=O)NCCO)C[C@@H](N(Cc2ccc(F)cc2)C(=O)C2CCCO2)[C@@H]1O (stereo partly specified)
Response: 0.346

Request: Try the molecule O=C1O[C@@H](c2ccccc2)[C@@H](c2ccccc2)N2[C@@H](c3ccccc3OCCO)[C@]3(C(=O)Nc4ccc(C#CCCO)cc43)[C@@H](C(=O)N3CCN(c4ncccn4)CC3)[C@H]12
Response: -0.022

Request: Try the molecule NC(=O)N1C(=O)C2C(C1=O)C1C=C(CCCO)C2C(c2cccs2)N1Cc1cc2c(cc1Br)OCO2 (stereo unspecified)
Response: -0.495

Request: Try the molecule C=C(COC)/C(=C/C[C@@H](OC(=O)c1ccncc1)c1ccc(OCCO)cc1)c1cnc2ccccc2c1
Response: 1.35

Request: Try the molecule CN1C2C=C(CCCO)C(C3C(=O)N(C(N)=O)C(=O)C32)C1c1cccs1 (stereo unspecified)
Response: -0.259

Request: Try the molecule C=CCOC(=O)[C@@H]1[C@H]2C(=O)O[C@H](c3ccccc3)[C@H](c3ccccc3)N2[C@H](c2ccc(OCCOC(=O)[C@H]3C[C@H]4C(=O)N[C@@H](CCCCNC(C)=O)C(=O)N4[C@H]3c3cccc(OCCO)c3)cc2)[C@@]12C(=O)Nc1ccc(I)cc12
Response: 0.771

Request: Try the molecule COc1cc2c(cc1OC)CN(C(=O)[C@H]1[C@@H]3C(=O)O[C@@H](c4ccccc4)[C@@H](c4ccccc4)N3[C@@H](c3ccc(OCCO)cc3)[C@]13C(=O)Nc1ccc(C#CCCO)cc13)CC2
Response: 0.292

Request: Try the molecule CC(C)(C)OC(=O)CC[C@@]1(C(=O)O)N=C(c2ccc(OCCCO)cc2)O[C@@H]1c1ccccc1CN=[N+]=[N-]
Response: -0.207

Request: Try the molecule COCCOC(=O)N1C(=O)[C@@]2(c3cc(C#Cc4ccc(OC)cc4)ccc31)[C@H](C(=O)N1CCCCCCC1)[C@H]1C(=O)O[C@H](c3ccccc3)[C@H](c3ccccc3)N1[C@@H]2c1ccc(O)cc1
Response: 0.519

Request: Try the molecule C=CCOC(=O)[C@@H]1[C@H]2C(=O)O[C@H](c3ccccc3)[C@H](c3ccccc3)N2[C@H](c2ccc(OCCOC(=O)[C@H]3C[C@H]4C(=O)N[C@@H](CCCCN(C)C)C(=O)N4[C@H]3c3cccc(OCCO)c3)cc2)[C@@]12C(=O)Nc1ccc(I)cc12
Response: 0.605

Request: Try the molecule [N-]=[N+]=NCc1ccccc1C[C@@]1(C(=O)NCCN2CCOCC2)N=C(c2ccc(OCCCO)cc2)O[C@@H]1c1ccccc1N=[N+]=[N-]
Response: 0.283

Request: Try the molecule COC(=O)[C@@]1(Cc2ccccc2)[C@H]2c3cc(C(=O)N4CCCC4)n(Cc4cc(F)cc5c4OCOC5)c3C[C@H]2CN1C(=O)c1ccccc1
Response: -0.12

Request: Try the molecule CC(C)(C)OC(=O)CC[C@]1(C(=O)O)N=C(c2ccc(OCCCO)cc2)O[C@H]1c1ccccc1CN=[N+]=[N-]
Response: -0.554

Request: Try the molecule C=C(/C=C/CNS(=O)(=O)c1ccc(C)cc1)[C@H](O)[C@H]1CCCN1S(=O)(=O)c1ccccc1[N+](=O)[O-]
Response: 0.669

Request: Try the molecule CC=CC(O)C1C=CC2C(=O)N(c3ccccc3)C(=O)C2N1Nc1ccccc1 (stereo unspecified)
Response: 0.247

Request: Try the molecule O=C1O[C@@H](c2ccccc2)[C@@H](c2ccccc2)N2[C@@H](c3ccc(O)cc3)[C@]3(C(=O)Nc4ccc(C#CCCO)cc43)[C@@H](C(=O)NC[C@H](O)c3ccccc3)[C@H]12
Response: -0.637

Request: Try the molecule COC(=O)[C@@]1(Cc2ccc(OC)cc2)[C@H]2c3cc(C(=O)N(C)C)n(Cc4nc5ccccc5[nH]4)c3C[C@H]2CN1C(=O)c1ccccc1
Response: 0.0916

Request: Try the molecule COc1ccccc1CN1C(=O)c2ccccc2[C@](Cc2ccccc2I)(C(=O)NC(C)C)[C@@H]1c1ccc(CO)cc1
Response: 0.457

Request: Try the molecule CCOC(=O)C1=C[C@@H](c2ccccc2)N(S(=O)(=O)c2ccc(C)cc2)[C@H]1c1cccc(Cl)c1
Response: 0.448

* * *

Give measured composite z-score for each item. Keep answers brief.
- Study System: Dickkopf-related protein 1 (Homo sapiens) (UniProt O94907)
- Sequence (O94907 whole entry, looked up): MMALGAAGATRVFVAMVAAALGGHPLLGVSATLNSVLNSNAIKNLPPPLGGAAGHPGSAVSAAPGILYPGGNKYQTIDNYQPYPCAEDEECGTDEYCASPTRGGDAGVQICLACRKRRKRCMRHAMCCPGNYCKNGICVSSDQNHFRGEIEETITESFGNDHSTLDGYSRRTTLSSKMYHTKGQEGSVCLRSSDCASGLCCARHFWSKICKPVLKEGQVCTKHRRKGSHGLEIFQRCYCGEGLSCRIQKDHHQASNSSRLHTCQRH
- Test Description: DKK1 binders on small-molecule microarrays, primary screen, biochemical, small-molecule microarray, 635 nm fluorescence scan (AID 1106);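 further: score merges emission near 667 nm with signal to noise over three replicate slides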
- Condition Set: DKK1 binding, higher = more signal

Request: Query: composite z-score; subject: C=C(CCCC)C(=O)CC[C@@H](OC(=O)c1cccnc1)c1ccccc1OCCO
Response: -0.265

Request: Try the compound COc1ccc(NC(=O)O[C@H]2[C@H](OC(=O)Nc3ccc4c(c3)OCO4)[C@@H](OC(=O)Nc3ccc4c(c3)OCO4)[C@@H](OC)O[C@@H]2CO)cc1
Response: 0.0542

Request: Try the compound C=CC[C@]12N=C(c3ccc(OCCCO)cc3)O[C@H]1c1ccccc1N(C)C2=O
Response: 0.334

Request: Try the compound Cc1ccc(S[C@]2(C(=O)O)CC(=O)N(Cc3ccccc3Cl)[C@@H]2c2ccc(CO)cc2)cc1
Response: -0.817

Request: Try the compound COc1cc(CO)cc(I)c1O[C@H]1C=C(C(=O)NCCO)C[C@@H](N(Cc2ccc(F)cc2)C(=O)C2CCCO2)[C@@H]1O (stereo partly drawn)
Response: 0.208

Request: Try the compound COC(=O)C1(Cc2ccccc2)C=C2C(=C(C(C)C)C(=O)C2C)CN1 (stereo not drawn)
Response: -1.41

Request: Try the compound COCC(=C=CC[C@H](O)c1cccc(OCCO)c1)C[C@H](O)c1ccccn1
Response: 0.354

Request: Try the compound C=C(COC)/C(=C/C[C@@H](OC(=O)c1ccncc1)c1ccc(OCCO)cc1)c1cnc2ccccc2c1
Response: 0.99

* * *

- Test Description: RPMI8226 myeloma cell viability, profiling panel, resazurin fluorescence, basal, 24 h, PK04 Diversity Set (AID 1180);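 further: RPMI8826 multiple myeloma cell line at 5000 cells per well; test concentration not given here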
- Condition Set: higher = more signal
Measured Attribute: z-score
// no unit string in output, number only

Request: Query: z-score; subject: CC(C)C[C@@H]1NC(=O)[C@H]2C[C@@H](C(=O)NCCCCCC[N+](C)(C)C)[C@@H](c3cccc(OCCO)c3)N2C1=O
Response: 0.571

Request: Try the molecule NC(=O)N1C(=O)C2C(C1=O)C1C=C(c3ccc(CO)cc3)C2C(C2CC2)N1Cc1sc2ccccc2c1Cl (configuration not stated)
Response: -1.23

Request: Try the molecule CC[C@H]1C2=C3C(CC[C@H]4C(OCc5ccc(F)cc5C(F)(F)F)OC[C@](C)([C@@H]34)N(C(=O)OC(C)(C)C)C2)C2COC(=O)OCC21 (some centres not stated)
Response: -0.556

Request: Try the molecule O=c1cccc(-c2ccc(C(F)(F)F)cc2)o1
Response: 0.263

Request: Try the molecule CCOC(=O)[C@H]1C/C=C/C[C@H](C(=O)OCC)C(=O)O[C@H]2[C@@H](OC)O[C@H](CO)[C@@H](OC(=O)CCc3ccccc3)[C@@H]2OC1=O
Response: 0.116

Request: Try the molecule C=CCOC(=O)[C@@H]1[C@H]2C(=O)O[C@H](c3ccccc3)[C@H](c3ccccc3)N2[C@H](c2ccc(OCCOC(=O)[C@H]3C[C@H]4C(=O)N[C@@H](CCCC[N+](C)(C)C)C(=O)N4[C@H]3c3ccc(O)cc3)cc2)[C@@]12C(=O)Nc1ccc(I)cc12
Response: -0.578

Request: Try the molecule CCC[C@@H]1C[C@@]1(CCC)[C@@H](NP(=O)(c1ccccc1)c1ccccc1)c1ccc(Cl)cc1
Response: -0.519

Request: Try the molecule C=C[C@@H](C)[C@H](OC(=O)Nc1ccc(SC)cc1)c1ccc(OCCO)cc1
Response: 0.152

Request: Try the molecule COc1ccc([Si](C)(C)[C@H]2[C@H](CC(=O)N3Cc4ccccc4C[C@H]3CO)O[C@@]3(C(=O)N(Cc4cccc(N5CCCCC5=O)c4)c4ccccc43)[C@@H]2C)cc1
Response: -1.74

Request: Try the molecule O=C1NC(=O)C2C1C=CC(C(O)c1cc(C(F)(F)F)cc(C(F)(F)F)c1)N2Nc1ccc(Cl)cc1Cl (configuration not stated)
Response: -2.37

Request: Try the molecule C=C(CCCC)/C(=C/C[C@@H](OC(=O)c1ccncc1)c1cccc(OCCO)c1)c1cnc2ccccc2c1
Response: 0.0765

Request: Try the molecule [N-]=[N+]=NCc1ccccc1C[C@]1(C(=O)NCC(O)CO)N=C(c2ccc(OCCCO)cc2)O[C@H]1c1ccccc1CN=[N+]=[N-] (some centres not stated)
Response: -0.881
